Molecular target: Amaranthus mutant PPO (AMARE) (Amaranthus tuberculatus, UniProt Q0NZW9, F420V/R128L)
Test: biochemical
Give IC50 for every item shown.

compound: CC(C)N(C)S(=O)(=O)NC(=O)c1cc(-n2c(=O)cc(C(F)(F)F)n(C)c2=O)c(F)cc1Cl [saflufenacil]
IC50: > 10000 nM

Here is another compound to look at.
Input line: For the compound C#CCN1C(=O)C(F)(F)Oc2cc(F)c(-n3c(=O)n(C)c(=S)n(C)c3=O)cc21 [BAS 850H] , what IC50 is on record?
Output line: 1510 nM

====

Molecular target: Amaranthus mutant PPO (AMARE) (Amaranthus tuberculatus, UniProt Q0NZW9, F420M)
Sequence (Q0NZW9 1-534 F420M): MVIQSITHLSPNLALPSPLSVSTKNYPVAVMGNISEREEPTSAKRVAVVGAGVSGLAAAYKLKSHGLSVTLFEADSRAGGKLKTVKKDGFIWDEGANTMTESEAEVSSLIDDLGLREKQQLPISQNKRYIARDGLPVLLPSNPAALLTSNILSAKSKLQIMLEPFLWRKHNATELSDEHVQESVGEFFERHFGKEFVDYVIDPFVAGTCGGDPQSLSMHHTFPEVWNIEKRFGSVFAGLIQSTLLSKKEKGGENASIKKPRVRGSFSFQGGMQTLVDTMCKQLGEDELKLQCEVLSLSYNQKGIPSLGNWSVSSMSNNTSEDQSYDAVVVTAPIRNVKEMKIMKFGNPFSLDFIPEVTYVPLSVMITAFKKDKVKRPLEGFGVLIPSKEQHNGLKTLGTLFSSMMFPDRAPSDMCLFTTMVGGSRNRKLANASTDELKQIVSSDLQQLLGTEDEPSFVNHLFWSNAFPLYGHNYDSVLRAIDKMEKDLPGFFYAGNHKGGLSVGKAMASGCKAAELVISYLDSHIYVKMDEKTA
Assay: biochemical
property: IC50 (µM)
Give bare numbers, in µM.

Input line: For the compound `CC(C)N(C)S(=O)(=O)NC(=O)c1cc(-n2c(=O)cc(C(F)(F)F)n(C)c2=O)c(F)cc1Cl` , what IC50 is on record?
Output line: 0.677
